- test_protocol: Fish toxicity test
- Assay type: in vivo
- test_context: guppy, water, female guppies, 20° C., 50% killed, read-out: TLm (medium tolerance limit)
We begin with a simple list: items and their reported LC50 at 48 h.

Would you please look over these solved cases?
{"columns": ["compound", "LC50 at 48 h"],
 "data": [
  ["CC1(C)[C@H](C(=O)OC(C(N)=S)c2cccc(Oc3ccccc3)c2)[C@@H]1CC(Cl)(Cl)Cl (relative stereo) [(27) [Cis-isomer]]", "≥ 10 µg/mL"],
  ["C#CC(OC(=O)[C@@H]1[C@H](CC(C)(Cl)Cl)C1(C)C)c1cccc(Oc2ccccc2)c1 (relative stereo) [(13) [Cis-isomer]]", "≥ 10 µg/mL"],
  ["CC1(C)[C@H](CC(Cl)(Cl)Cl)[C@H]1C(=O)OC(C#N)c1cccc(Oc2ccccc2)c1 (relative stereo) [(7) [Trans-isomer]]", "0.5 to 10 µg/mL"]
]}

Note: attention shifts to another entry.
Data request, read-out LC50 at 48 h, for C#CC(OC(=O)[C@@H]1[C@@H](CC(Cl)(Cl)Cl)C1(C)C)c1cccc(Oc2ccccc2)c1 (relative stereo) [(11) [Trans-isomer]]
≥ 10 µg/mL
